Listing of entries alongside the reported Emax.
# SYSTEM: glutathione-S-transferase (GST) tagged LXRbeta LBD (ligand binding domain) (Homo sapiens)
# Construct: purchased Invitrogen pv4658
# PROTOCOL TEXT: LanthaScreen TR-FRET Liver X Receptor Coactivator Assay, LXR beta
# Type: biochemical
# CONDITION PARAMETERS: read-out: LXR beta actiivty at max dose, efficacy (% Emax) in relation to reference dual agonist T0901317
# number only, unit % dropped from output

The examples below pair each entry with its known result.
>>> numeric_result("COc1cccc([C@](O)(C(=O)N2CCC3(CC2)C[C@H]3CCCOc2ccc(C(=O)N(C)C)c(Cl)c2)C(F)(F)F)c1 (single isomer, unassigned)")
80
>>> numeric_result("CN(C)C(=O)c1ccc(O[C@H]2C[C@@H](CC3CCN(C(=O)[C@](O)(c4cccc(OC(F)F)c4)C(F)(F)F)CC3)C2)cc1Cl (single isomer, unassigned)")
111

Q: Reported Emax for glutathione-S-transferase (GST) tagged LXRbeta LBD (ligand binding domain) (Homo sapiens), given CN(C)C(=O)c1ccc(OCCC2CC23CCN(C(=O)C2(c4cc(F)ccc4F)CCC2)CC3)cc1Cl (single isomer, unassigned) ?
A: 87

Q: For the record CN(C)C(=O)c1ccc(OCC[C@@H]2CC23CCN(C(=O)C2(c4ccccc4Br)CCC2)CC3)cc1Cl (single isomer, unassigned) , what value of Emax is listed for glutathione-S-transferase (GST) tagged LXRbeta LBD (ligand binding domain) (Homo sapiens)?
A: 79

----------
# SYSTEM: glutathione-S-transferase (GST) tagged LXRbeta LBD (ligand binding domain) (Homo sapiens, UniProt P55055)
# Construct: purchased Invitrogen pv4658
# Sequence (P55055 222-460 limits assumed): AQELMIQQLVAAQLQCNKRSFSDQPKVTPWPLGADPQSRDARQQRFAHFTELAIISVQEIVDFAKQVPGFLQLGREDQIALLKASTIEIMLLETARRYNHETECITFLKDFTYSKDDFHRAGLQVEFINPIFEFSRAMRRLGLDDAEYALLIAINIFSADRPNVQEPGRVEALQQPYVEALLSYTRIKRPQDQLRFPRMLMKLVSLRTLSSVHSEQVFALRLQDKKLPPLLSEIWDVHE
# PROTOCOL TEXT: LanthaScreen TR-FRET Liver X Receptor Coactivator Assay, LXR beta
# Type: biochemical
# CONDITION PARAMETERS: read-out: LXR beta actiivty at max dose, efficacy (% Emax) in relation to reference dual agonist T0901317
OBSERVED PROPERTY: Emax
Give the figure together with its unit, number first.

>>> result("CN(C)C(=O)c1ccc(OC[C@@H]2C[C@H]2C2CCN(C(=O)C(C)(C)c3ccccc3)CC2)cc1Cl (single isomer, unassigned) [Example 32-4]")
"60%"
>>> result("COc1cccc(C(O)(C(=O)N2CCC(CCCCOc3ccc(C(=O)N(C)C)c(Cl)c3)CC2)C(F)(F)F)c1 (single isomer, unassigned) [Example 3-13]")
"61%"
>>> result("O=C(c1ccc(OCCCCC2CCN(C(=O)C(O)(c3ccccc3)C(F)(F)F)CC2)cc1Cl)N1CC(F)(F)C1 (single isomer, unassigned) [Example 8-4]")
"60%"

Q: Recorded Emax for CN(C)C(=O)c1ccc(OCCC2CC23CCN(C(=O)C2(c4ccc(Br)cc4)COC2)CC3)cc1Cl (single isomer, unassigned) [Example 12-12] , please?
A: 60%

----------
# SYSTEM: glutathione-S-transferase (GST) tagged LXRalpha LBD (ligand binding domain) (Homo sapiens)
# Construct: purchased Invitrogen pv4655
# Sequence (Q13133 209-447 limits assumed): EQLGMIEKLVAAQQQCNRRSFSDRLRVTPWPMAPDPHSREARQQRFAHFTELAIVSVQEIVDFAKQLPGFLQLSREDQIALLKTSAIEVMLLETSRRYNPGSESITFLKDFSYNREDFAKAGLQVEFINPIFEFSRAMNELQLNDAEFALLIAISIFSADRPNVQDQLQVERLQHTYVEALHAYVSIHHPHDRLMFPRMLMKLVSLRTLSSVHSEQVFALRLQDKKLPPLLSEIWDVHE
# PROTOCOL TEXT: biochemical
# CONDITION PARAMETERS: efficacy (% Emax) in relation to reference dual agonist T0901317; read-out: LXR alpha actiivty at max dose
Each record here notes measured Emax.
// note: answer is a bare numeric in %

The following compounds have reported results that may help.
>>> numeric_result("COc1cccc([C@@](O)(C(=O)N2CCC(CC[C@H](C)COc3ccc(C(N)=O)c(Cl)c3)CC2)C(F)(F)F)c1 (single isomer, unassigned) [Example 24-1]")
14
>>> numeric_result("COc1cccc([C@@](O)(C(=O)N2CCC(C[C@@H](C)CCOc3ccc(C(=O)N(C)C)c(Cl)c3)CC2)C(F)(F)F)c1 (single isomer, unassigned) [Example 27-1]")
23
>>> numeric_result("CN(C)C(=O)c1ccc(OCCC2CC23CCN(C(=O)C2(c4ccccc4)CCCC2)CC3)cc1Cl (single isomer, unassigned) [Example 12-1]")
1
>>> numeric_result("CC(C[C@H]1CC12CCN(C(=O)C1(c3ccccc3)CCC1)CC2)Oc1ccc(C(=O)N(C)C)c(Cl)c1 (single isomer, unassigned) [Example 13-1]")
25
>>> numeric_result("CN(C)C(=O)c1ccc(OC(F)(F)CCCC2CCN(C(=O)C(O)(c3ccccc3)C(F)(F)F)CC2)cc1Cl (single isomer, unassigned) [Example 19-1]")
23
>>> numeric_result("COc1cccc(C(O)(C(=O)N2CCC(C(F)CCCOc3ccc(C(=O)N(C)C)c(Cl)c3)CC2)C(F)(F)F)c1 (single isomer, unassigned) [Example 21-1]")
27

Q: Using the record for COc1cccc(C(O)(C(=O)N2CCC3(CCC3CCCOc3ccc(C(=O)N(C)C)c(Cl)c3)CC2)C(F)(F)F)c1 (single isomer, unassigned) [Example 36-1] , report its Emax.
A: 3

Q: Which Emax value is on record for COc1cccc(C(O)(C(=O)N2CCC(C(F)(F)CCCOc3ccc(C(=O)N(C)C)c(Cl)c3)CC2)C(F)(F)F)c1 (single isomer, unassigned) [Example 22-1] ?
A: 32

Q: Can you share its Emax? I mean this compound: CN(C)C(=O)c1ccc(OCCCCC2CCN(C(=O)C(O)(c3ccccn3)C(F)(F)F)CC2)nc1Cl (centres unmarked) [Example 6-1]
A: 28

Q: What value of Emax has been recorded for this entry: CC(CCC1CCN(C(=O)[C@](O)(c2ccccc2)C(F)(F)F)CC1)COc1ccc(C(=O)N(C)C)c(Cl)c1 (single isomer, unassigned) [Example 23-1]
A: 23

Q: Need Emax, item COc1cccc(C(O)(C(=O)N2CCC(C(C)CCCOc3ccc(C(=O)N(C)C)c(Cl)c3)CC2)C(F)(F)F)c1 (single isomer, unassigned) [Example 26-1]
A: 12

----------
# SYSTEM: glutathione-S-transferase (GST) tagged LXRalpha LBD (ligand binding domain) (Homo sapiens, UniProt Q13133)
# Construct: purchased Invitrogen pv4655
# Sequence (Q13133 209-447 limits assumed): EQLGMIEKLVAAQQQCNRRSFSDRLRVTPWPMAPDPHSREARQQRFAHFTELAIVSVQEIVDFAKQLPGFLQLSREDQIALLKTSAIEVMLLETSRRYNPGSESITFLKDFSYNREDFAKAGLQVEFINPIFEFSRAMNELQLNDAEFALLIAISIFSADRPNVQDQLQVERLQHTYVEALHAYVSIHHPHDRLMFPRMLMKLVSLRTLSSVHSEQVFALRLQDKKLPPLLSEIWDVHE
# PROTOCOL TEXT: biochemical
# CONDITION PARAMETERS: read-out: LXR alpha actiivty at max dose, efficacy (% Emax) in relation to reference dual agonist T0901317
OBSERVED PROPERTY: Emax (%)
I only need the number, in %, no unit after it.

Consider the reported Emax for these compounds:
>>> numeric_result("CNC(=O)c1ccc(OCC[C@@H]2C[C@@H]2C2CCN(C(=O)[C@](O)(c3cc(F)cc(F)c3)C(F)(F)F)CC2)cc1Cl (single isomer, unassigned) [Example 10-3]")
63
>>> numeric_result("CNC(=O)c1ccc(OC[C@@H](C)CCC2CCN(C(=O)[C@@](O)(c3cccc(OC)c3)C(F)(F)F)CC2)cc1Cl (single isomer, unassigned) [Example 23-4]")
9
>>> numeric_result("CN(C)C(=O)c1ccc(OCC[C@H]2CC23CCN(C(=O)[C@](N)(c2ccccc2)C(F)(F)F)CC3)cc1Cl (single isomer, unassigned) [Example 12-9]")
0
>>> numeric_result("O=C(c1ccc(OCCCCC2CCN(C(=O)C(O)(c3ccccc3)C(F)(F)F)CC2)cc1Cl)N1C[C@H]2CC[C@@H]1C2 (single isomer, unassigned) [Example 8-14]")
19
>>> numeric_result("CN(C)C(=O)c1ccc(OCC[C@@H]2CC23CCN(C(=O)C(C)(c2ccccc2)C2CCC2)CC3)cc1Cl (single isomer, unassigned) [Example 12-14]")
20
>>> numeric_result("C[C@@H](CCC1CCN(C(=O)[C@](O)(c2cc(F)cc(F)c2)C(F)(F)F)CC1)COc1ccc(C(=O)N(C)C)c(Cl)c1 (single isomer, unassigned) [Example 23-3]")
42
>>> numeric_result("CN(C)C(=O)c1ccc(OCCC2CC23CCN(C(=O)C(C)(C)c2csc(N)n2)CC3)cc1Cl (single isomer, unassigned) [Example 12-10]")
21
>>> numeric_result("CNC(=O)c1ccc(OC[C@H]2C[C@@H]2C2CCN(C(=O)[C@](O)(c3ccccc3)C(F)(F)C(F)(F)F)CC2)cc1Cl (single isomer, unassigned) [Example 32-5]")
33

Q: For CN(C)C(=O)c1ccc(OCCCCC2CCN(S(=O)(=O)c3ccccc3C(F)(F)F)CC2)nc1Cl [Example 7-1] , what is its reported Emax?
A: 82

Q: What does the record list as Emax for CN(C)C(=O)c1ccc(OCCC2CC23CCN(S(=O)(=O)C(C)(C)c2ccccc2)CC3)cc1Cl (single isomer, unassigned) [Example 12-18] ?
A: 27

Q: Please give the measured Emax for this compound: CN(C)C(=O)c1ccc(OCCCCC2CCN(C(=O)C(O)(c3cccc(OC(F)(F)F)c3)C(F)(F)F)CC2)cc1Cl (single isomer, unassigned) [Example 3-9]
A: 17
